Consider the following MIC values measured on B. subtilis pHT01-cfr.
Numbers only, in µM.

Below are worked cases with known answers.
1. O=C(N[C@H](CO)[C@H](O)c1ccc([N+](=O)[O-])cc1)C(Cl)Cl | 90
2. CCCCCCCCCC[P+](c1ccccc1)(c1ccccc1)c1ccccc1 [C10-TPP, decyl(triphenyl)phosphonium bromide] | 0.8
3. O=C(CCCCCCCCCC[P+](c1ccccc1)(c1ccccc1)c1ccccc1)NCCCC(=O)N[C@H](CO)[C@H](O)c1ccc([N+](=O)[O-])cc1 | 6
4. O=C(CCCCCCCCCC[P+](c1ccccc1)(c1ccccc1)c1ccccc1)N[C@H](CO)[C@H](O)c1ccc([N+](=O)[O-])cc1 | 6

// below: MIC requested for another molecule
The reported value for CCCCCCCCCCCCCC[P+](c1ccccc1)(c1ccccc1)c1ccccc1 [C14-TPP, tetradecyl(triphenyl)phosphonium bromide] in terms of MIC is 0.8

---

Test system: MCF7
Readout type: GI50 (nM)
One number for each entry, in nM.

Below are worked cases with known answers.
1. COc1cccc2c1C(=O)c1c(O)c3c(c(O)c1C2=O)C[C@@](O)(C(=O)CO)C[C@@H]3O[C@H]1C[C@H](N)[C@H](O)[C@H](C)O1 [Doxorubicin, doxorubicin] | 40
2. CCCCCCCCCCCCCC[P+](c1ccccc1)(c1ccccc1)c1ccccc1 [C14-TPP, tetradecyl(triphenyl)phosphonium bromide] | 20

The reported value for CCCCCCCCCC[P+](c1ccccc1)(c1ccccc1)c1ccccc1 [C10-TPP, decyl(triphenyl)phosphonium bromide] in terms of GI50 is 210

---

System: MCF7
Readout type: GI50 (µM)
Give bare numbers, in µM.

Fill in GI50 for each of the 2 molecules listed.
1. O=C(CCCCCCCCCC[P+](c1ccccc1)(c1ccccc1)c1ccccc1)N[C@H](CO)[C@H](O)c1ccc([N+](=O)[O-])cc1
2. O=C(CCCCCCCCCC[P+](c1ccccc1)(c1ccccc1)c1ccccc1)NCCCC(=O)N[C@H](CO)[C@H](O)c1ccc([N+](=O)[O-])cc1

[1, 5.8]

---

Would you kindly list MIC for each of these compounds?
Tested on: Bacillus subtilis
Procedure text: MIC determination, broth microdilution
Type: cell-based
Give bare numbers, in µM.

Below are worked cases with known answers.
1. CCCCCCCCCCCCCC[P+](c1ccccc1)(c1ccccc1)c1ccccc1 [C14-TPP, tetradecyl(triphenyl)phosphonium bromide] | 8
2. CCCCCCCCCC[P+](c1ccccc1)(c1ccccc1)c1ccccc1 [C10-TPP, decyl(triphenyl)phosphonium bromide] | 2
3. O=C(CCCCCCCCCC[P+](c1ccccc1)(c1ccccc1)c1ccccc1)NCCCC(=O)N[C@H](CO)[C@H](O)c1ccc([N+](=O)[O-])cc1 | 12

// below: MIC requested for another compound
The reported value for `O=C(CCCCCCCCCC[P+](c1ccccc1)(c1ccccc1)c1ccccc1)N[C@H](CO)[C@H](O)c1ccc([N+](=O)[O-])cc1` in terms of MIC is 2
